# Target Under Test: UniProt:P29474
# Sequence (P29474 whole entry): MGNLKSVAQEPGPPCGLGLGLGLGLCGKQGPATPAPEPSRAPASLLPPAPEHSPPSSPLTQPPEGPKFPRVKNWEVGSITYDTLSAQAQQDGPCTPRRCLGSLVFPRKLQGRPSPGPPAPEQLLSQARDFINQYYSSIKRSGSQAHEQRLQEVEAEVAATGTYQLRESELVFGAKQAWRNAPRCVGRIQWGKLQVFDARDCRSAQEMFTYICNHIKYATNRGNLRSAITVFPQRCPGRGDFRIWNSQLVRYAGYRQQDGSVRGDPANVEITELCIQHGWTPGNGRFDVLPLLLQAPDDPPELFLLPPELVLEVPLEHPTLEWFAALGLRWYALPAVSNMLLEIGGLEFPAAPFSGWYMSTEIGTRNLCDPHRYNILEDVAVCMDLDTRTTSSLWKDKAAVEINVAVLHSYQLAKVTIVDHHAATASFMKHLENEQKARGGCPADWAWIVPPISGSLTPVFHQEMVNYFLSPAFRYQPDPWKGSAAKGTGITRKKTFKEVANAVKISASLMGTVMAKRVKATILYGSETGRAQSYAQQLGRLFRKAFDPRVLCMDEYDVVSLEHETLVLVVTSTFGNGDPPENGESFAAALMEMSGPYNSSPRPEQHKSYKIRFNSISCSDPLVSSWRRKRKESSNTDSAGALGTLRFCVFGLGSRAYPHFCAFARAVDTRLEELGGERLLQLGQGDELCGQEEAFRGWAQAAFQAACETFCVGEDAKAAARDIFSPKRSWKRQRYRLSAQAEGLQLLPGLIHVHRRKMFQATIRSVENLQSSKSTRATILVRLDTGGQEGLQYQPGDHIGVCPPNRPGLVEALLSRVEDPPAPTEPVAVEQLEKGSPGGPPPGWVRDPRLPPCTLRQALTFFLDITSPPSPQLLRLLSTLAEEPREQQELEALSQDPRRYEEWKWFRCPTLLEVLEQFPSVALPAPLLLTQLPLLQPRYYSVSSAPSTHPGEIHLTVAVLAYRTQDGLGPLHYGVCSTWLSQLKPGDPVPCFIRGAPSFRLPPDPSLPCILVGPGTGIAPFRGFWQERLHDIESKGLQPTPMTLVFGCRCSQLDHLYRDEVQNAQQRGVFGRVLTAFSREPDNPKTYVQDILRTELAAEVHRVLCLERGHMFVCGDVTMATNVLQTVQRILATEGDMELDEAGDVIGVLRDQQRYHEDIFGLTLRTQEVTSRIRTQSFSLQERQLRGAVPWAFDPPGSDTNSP
The label is yes for IC50 below 50 µM and no for IC50 equal to or exceeding 50 µM.

Illustrative cases are given below, each with its answer.
NC1=NCCNCC1; no
CC1CC(N)=NC2CCCCC2S1 (centres undefined); no
NC1=NCCOCC1; yes

Query block: Problem: For the compound CC(C)CC1CSCCC(N)=N1 (centres undefined) , is IC50 under 50 µM?
Result block: no

Query block: Problem: For the compound CC1CSCCN=C1N (centres undefined) , is IC50 under 50 µM?
Result block: no

Query block: Problem: For the compound `NC1=NCCCSC1` , is IC50 under 50 µM?
Result block: yes

Query block: Problem: For the compound `NC1=NCCCOC1` , is IC50 under 50 µM?
Result block: yes

Attribution: ChEMBL document CHEMBL1138708
